Data provenance: patent US9926282B2

Hi there, I'd appreciate the recorded IC50 for every entry that follows.
target: ROCK1 (Homo sapiens (Human), UniProt Q13464); test: ROCK assay (LABCHIP peptide phosphorylation), ROCK1; assay type: biochemical; conditions: 5 μM ATP, 1.5 μM peptide substrate; read-out: ROCK1 IC50
Sequence (Q13464 whole entry, species assumed): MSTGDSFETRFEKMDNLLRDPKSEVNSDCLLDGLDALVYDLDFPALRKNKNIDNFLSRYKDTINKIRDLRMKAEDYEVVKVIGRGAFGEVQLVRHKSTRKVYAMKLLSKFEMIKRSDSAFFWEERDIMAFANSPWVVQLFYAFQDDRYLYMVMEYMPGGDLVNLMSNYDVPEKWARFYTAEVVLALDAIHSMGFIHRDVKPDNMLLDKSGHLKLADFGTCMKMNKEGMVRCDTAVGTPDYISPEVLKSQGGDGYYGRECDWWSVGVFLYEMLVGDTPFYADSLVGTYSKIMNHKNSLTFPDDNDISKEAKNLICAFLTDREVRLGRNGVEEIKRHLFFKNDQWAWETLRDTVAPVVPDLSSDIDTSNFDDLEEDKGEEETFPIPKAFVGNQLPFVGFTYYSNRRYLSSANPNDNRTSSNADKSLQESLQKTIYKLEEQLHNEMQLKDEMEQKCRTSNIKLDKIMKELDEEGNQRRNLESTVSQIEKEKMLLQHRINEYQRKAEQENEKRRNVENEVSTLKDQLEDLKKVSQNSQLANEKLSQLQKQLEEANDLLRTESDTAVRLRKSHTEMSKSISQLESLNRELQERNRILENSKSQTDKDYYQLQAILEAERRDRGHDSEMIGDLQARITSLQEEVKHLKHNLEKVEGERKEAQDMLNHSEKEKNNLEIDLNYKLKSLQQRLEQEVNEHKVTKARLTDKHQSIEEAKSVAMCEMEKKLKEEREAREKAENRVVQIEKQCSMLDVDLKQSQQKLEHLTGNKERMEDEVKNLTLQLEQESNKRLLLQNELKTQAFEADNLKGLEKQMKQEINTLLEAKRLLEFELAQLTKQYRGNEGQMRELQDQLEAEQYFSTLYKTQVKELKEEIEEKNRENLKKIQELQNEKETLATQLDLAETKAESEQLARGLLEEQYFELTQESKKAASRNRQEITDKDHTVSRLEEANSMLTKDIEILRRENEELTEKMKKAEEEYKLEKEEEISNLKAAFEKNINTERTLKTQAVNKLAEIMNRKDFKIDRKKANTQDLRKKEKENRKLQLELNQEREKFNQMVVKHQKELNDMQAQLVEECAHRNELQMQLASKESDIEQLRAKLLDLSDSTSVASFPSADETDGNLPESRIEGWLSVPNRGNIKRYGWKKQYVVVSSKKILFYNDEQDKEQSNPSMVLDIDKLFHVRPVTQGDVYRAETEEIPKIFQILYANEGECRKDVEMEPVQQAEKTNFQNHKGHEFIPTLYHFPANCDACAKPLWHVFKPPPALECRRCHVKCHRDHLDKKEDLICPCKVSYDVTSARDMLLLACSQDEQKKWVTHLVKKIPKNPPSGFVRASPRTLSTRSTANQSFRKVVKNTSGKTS

IC50 in this record for CC(C)=Cn1nc(C(=O)Nc2ccc(-c3n[nH]c(=O)c4ccccc34)cc2)c2ccc(F)cc21 [Example 179] : 0.1 to 100 nM

Notebook: O=C(Nc1ccc(-c2c[nH]c(=O)c3ccccc23)cc1)c1ccc(N2CCOCC2)cc1 [Example 250] , IC50 read as 101 to 1000 nM

Notebook: Cc1cc(NC(=O)N2CCc3ccccc32)ccc1-c1n[nH]c(=O)c2ccccc12 [Example 324] , IC50 read as 0.1 to 100 nM

The compound listed as Cc1ccn2cc(C(=O)Nc3ccc(-c4n[nH]c(=O)c5ccccc45)cc3)nc2c1 [Example 126] has a reported IC50 of 101 to 1000 nM

Looking up COc1ccccc1-n1cc(C(=O)Nc2ccc(-c3n[nH]c(=O)c4ccccc34)cc2)nn1 [Example 406] , I found its IC50 recorded as 0.1 to 100 nM

---

target: ROCK2 (Homo sapiens (Human), UniProt O75116); assay: ROCK assay (LABCHIP peptide phosphorylation), ROCK2; format: biochemical; conditions: 5 μM ATP, 1.5 μM peptide substrate
Sequence (O75116 whole entry, species assumed): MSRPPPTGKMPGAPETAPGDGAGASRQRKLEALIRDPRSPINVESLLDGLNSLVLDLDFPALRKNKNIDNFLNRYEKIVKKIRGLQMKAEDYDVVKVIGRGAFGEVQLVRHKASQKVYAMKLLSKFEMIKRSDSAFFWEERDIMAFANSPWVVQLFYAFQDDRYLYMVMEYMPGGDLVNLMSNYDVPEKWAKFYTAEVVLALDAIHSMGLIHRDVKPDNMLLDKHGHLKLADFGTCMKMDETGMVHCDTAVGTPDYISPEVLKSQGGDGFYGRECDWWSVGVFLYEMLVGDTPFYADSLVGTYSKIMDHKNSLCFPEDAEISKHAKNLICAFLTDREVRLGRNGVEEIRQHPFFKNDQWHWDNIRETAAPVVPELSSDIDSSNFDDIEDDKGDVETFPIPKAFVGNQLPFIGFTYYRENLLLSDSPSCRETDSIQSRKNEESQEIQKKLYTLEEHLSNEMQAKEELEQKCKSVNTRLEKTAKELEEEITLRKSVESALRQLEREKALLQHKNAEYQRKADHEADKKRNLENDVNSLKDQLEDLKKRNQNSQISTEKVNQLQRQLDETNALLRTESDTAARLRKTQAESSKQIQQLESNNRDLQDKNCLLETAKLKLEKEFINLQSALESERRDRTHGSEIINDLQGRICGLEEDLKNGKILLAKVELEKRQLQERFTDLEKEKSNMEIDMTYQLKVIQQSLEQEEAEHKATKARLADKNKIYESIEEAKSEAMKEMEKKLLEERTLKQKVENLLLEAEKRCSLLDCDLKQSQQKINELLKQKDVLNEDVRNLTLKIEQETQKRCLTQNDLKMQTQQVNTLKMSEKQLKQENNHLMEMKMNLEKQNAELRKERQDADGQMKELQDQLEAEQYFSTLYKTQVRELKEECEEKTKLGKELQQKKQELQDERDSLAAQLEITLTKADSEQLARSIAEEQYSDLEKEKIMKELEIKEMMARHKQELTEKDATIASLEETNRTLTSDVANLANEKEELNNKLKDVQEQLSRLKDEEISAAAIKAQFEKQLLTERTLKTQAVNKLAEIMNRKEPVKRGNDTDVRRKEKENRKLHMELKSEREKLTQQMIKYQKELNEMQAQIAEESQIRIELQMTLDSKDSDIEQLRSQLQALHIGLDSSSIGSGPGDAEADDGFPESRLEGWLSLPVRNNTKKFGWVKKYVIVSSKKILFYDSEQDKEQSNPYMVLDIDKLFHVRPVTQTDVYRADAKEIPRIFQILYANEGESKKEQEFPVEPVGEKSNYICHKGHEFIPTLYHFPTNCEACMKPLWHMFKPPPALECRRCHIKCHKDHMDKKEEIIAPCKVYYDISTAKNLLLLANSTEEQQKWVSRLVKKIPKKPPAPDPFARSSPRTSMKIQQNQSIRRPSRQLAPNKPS
pIC50: −log10 of the molar value.
quantity_measured: pIC50

Kindly note: ROCK2 (Homo sapiens (Human), UniProt O75116), Cn1nc2ccccc2c1C(=O)Nc1ccc(-c2n[nH]c(=O)c3ccccc23)cc1 [Example 131] , pIC50 value reported: 7.00 to 10.00

Simply: Cc1ccc2[nH]c(C(=O)Nc3ccc(-c4n[nH]c(=O)c5ccccc45)cc3)cc2c1 [Example 101] , ROCK2 (Homo sapiens (Human), UniProt O75116), pIC50 = 7.00 to 10.00

// pIC50 (ROCK2 (Homo sapiens (Human), UniProt O75116)) for CN(C(=O)Cc1ccc(-c2n[nH]c(=O)c3ccccc23)cc1)c1ccccc1 [Example 22] = 4.30 to 6.00

Item: O=C(Cc1ccc(-c2n[nH]c(=O)c3ccccc23)cc1)Nc1ccc2c(c1)OCCO2 [Example 24] | System: ROCK2 (Homo sapiens (Human), UniProt O75116) | pIC50: 7.00 to 10.00

pIC50 on ROCK2 (Homo sapiens (Human), UniProt O75116) for O=C(Nc1ccc(-c2n[nH]c(=O)c3ccccc23)cc1)c1n[nH]c2ccc(Cl)cc12 [Example 114] is 7.00 to 10.00

Recorded pIC50 for O=C(Cc1ccc(-c2n[nH]c(=O)c3ccccc23)cc1)N1CCc2ccc(C(F)(F)F)cc21 [Example 35] on ROCK2 (Homo sapiens (Human), UniProt O75116) was 7.00 to 10.00

// assay ROCK2 (Homo sapiens (Human), UniProt O75116), entry O=C(Nc1ccc(-c2n[nH]c(=O)c3ccccc23)cc1)c1ccn(-c2ccccc2)n1 [Example 226] , pIC50 value = 7.00 to 10.00

Value (pIC50, ROCK2 (Homo sapiens (Human), UniProt O75116)) for record O=C(Cc1ccc(-c2n[nH]c(=O)c3ccccc23)cc1)N[C@@H]1CCc2ccccc21 [Example 81] = 6.00 to 7.00

pIC50 of O=C(c1ccc2c(c1)N(C(=O)Cc1ccc(-c3n[nH]c(=O)c4ccccc34)cc1)CC2)N1CCOCC1 [Example 293] , assay on ROCK2 (Homo sapiens (Human), UniProt O75116), is 7.00 to 10.00

Measured pIC50 (ROCK2 (Homo sapiens (Human), UniProt O75116)), entry O=C(Nc1ccc(-c2n[nH]c(=O)c3ccccc23)cc1)c1cnn2ccccc12 [Example 103] : 7.00 to 10.00

Reported pIC50 (ROCK2 (Homo sapiens (Human), UniProt O75116)) for entry O=C(Nc1ccc(-c2n[nH]c(=O)c3ccccc23)cc1)c1nn(CC2CCOC2)c2ccc(F)cc12 (stereo not shown) [Example 173] is 7.00 to 10.00

Value sought: pIC50, system ROCK2 (Homo sapiens (Human), UniProt O75116), item CC(=O)N1CC(Cn2nc(C(=O)Nc3ccc(-c4n[nH]c(=O)c5ccccc45)cc3)c3ccccc32)C1 [Example 339] . Result: 7.00 to 10.00

Noted pIC50 for O=C(Nc1ccc(-c2n[nH]c(=O)c3ccccc23)cc1)C1CCN(c2ccccc2)C1=O (stereo not shown) [Example 215] , tested on ROCK2 (Homo sapiens (Human), UniProt O75116): 6.00 to 7.00

O=C(Cc1ccc(-c2n[nH]c(=O)c3ccccc23)cc1)N1Cc2ccccc2C1 [Example 1] tested on ROCK2 (Homo sapiens (Human), UniProt O75116) gave pIC50: 7.00 to 10.00

# lookup: COCCN1CCC(C(=O)Nc2ccc(-c3n[nH]c(=O)c4ccccc34)cc2)C1 (stereo not shown) [Example 57] on ROCK2 (Homo sapiens (Human), UniProt O75116), pIC50 = 4.30 to 6.00

Value sought: pIC50, system ROCK2 (Homo sapiens (Human), UniProt O75116), item Cn1nc(C(=O)Nc2ccc(-c3n[nH]c(=O)c4ccccc34)cc2)c2ccccc21 [Example 98] . Result: 7.00 to 10.00

Fill in: ROCK2 (Homo sapiens (Human), UniProt O75116) pIC50 for NC(=O)COc1ccc2c(c1)N(C(=O)Cc1ccc(-c3n[nH]c(=O)c4ccccc34)cc1)CC2 [Example 298] = 7.00 to 10.00

Test item CC(=O)N1CCC(C(=O)Nc2ccc(-c3n[nH]c(=O)c4ccccc34)cc2)CC1 [Example 55] ; ROCK2 (Homo sapiens (Human), UniProt O75116); reported pIC50 was 4.30 to 6.00

Entry O=c1[nH]nc(-c2ccc(Nc3nc(-c4ccccc4)cs3)cc2)c2ccccc12 [Example 74] : pIC50 on ROCK2 (Homo sapiens (Human), UniProt O75116) = 7.00 to 10.00
